Listed next: entries and their corresponding GI50.
- Tested on: RXF 631
- test name: NCI tumour cell line growth inhibition, 48 h
The source made the active and inactive calls. Cut-off read from the data, not from the text of the source: active = GI50 up to about 1.1 µM and inactive = higher.

# compound, measured target, GI50
measured = [
    ("O=C1c2ccccc2C2C1N2C(=O)C(F)(F)F (stereo not drawn)", "RXF 631", "94.6 µM (inactive)"),
    ("CNC(=O)NCCN1N=C(C)/C(=C\\c2ccccc2)CC1=O", "RXF 631", "> 100 µM (inactive)"),
    ("O=C1Nc2cc([N+](=O)[O-])c(Br)cc2C1=O", "RXF 631", "18.5 µM (inactive)"),
]

---

- Test system: HCT-15

# compound, measurement unit, qual, GI50
measured = [
    ("O=C(Cc1ccccc1)N/N=C1\\C(=O)Nc2ccccc21", "µM", "=", 62.8),
    ("c1ccc(C2=NOC3C4CCC(C4)C23)cc1 (centres undefined)", "µM", ">", 100),
    ("CCOC(=O)C1(C(=O)OCC)CC=C(C)CC12C(=O)Nc1ccccc12 (centres undefined)", "µM", ">", 100),
    ("O=Cc1ccccc1OCCOc1cc(OCCOc2ccccc2C=O)c(OCCOc2ccccc2C=O)cc1OCCOc1ccccc1C=O", "µM", ">", 66.2),
    ("O=C(CCc1cccc(O)c1)NCCc1ccc(O)cc1", "µM", ">", 100),
    ("COC(=O)C12C3C4C1C1C2C3C41I (centres undefined)", "µM", ">", 100),
    ("CCOC(=O)NC(=O)c1cn(CCCCCCCCCCC(=O)N2CCN(CCn3cc(C(=O)NC(=O)OCC)c(=O)[nH]c3=O)CC2)c(=O)[nH]c1=O", "µM", ">", 100),
    ("CCCCCn1cc2c3c(cccc31)C1C=C(C)CN(C)[C@@H]1C2.Cc1ccc(C(=O)OC(C(=O)O)C(OC(=O)c2ccc(C)cc2)C(=O)O)cc1 (centres undefined)", "µM", "=", 4.58),
    ("CC(Cn1c2c(c3cc(O)ccc31)CCc1ccc(O)cc1-2)N(C)C (centres undefined)", "µM", "=", 13.9),
    ("O=C(Nc1cccc(Cl)c1)C(=O)C(C(=O)c1ccc2ccccc2c1)C1OC(=O)c2ccccc21 (centres undefined)", "µM", ">", 10),
    ("Cc1cc2c(cc1Cl)SC(NNC(=O)c1ccncc1)=NS2(=O)=O", "µM", ">", 10),
    ("Cc1ccccc1-c1cc(=O)c2cc(C)c(C)c(C(=O)O)c2o1", "µM", ">", 100),
    ("O=C1c2ccccc2C(=O)N1C/C=C/CO", "µM", ">", 100),
    ("CCOC(=O)C1=C(OC(OCC)C(CC)[Se]c2ccccc2)CCCC1 (centres undefined)", "µM", "=", 16.9),
    ("COc1cc(/C=C2\\C[C@H]3[C@@H]4CC=C5C[C@@H](N6CCCC6)CC[C@]5(C)[C@H]4CC[C@]3(C)[C@H]2OC(C)=O)cc(OC)c1OC", "µM", "=", 12.6),
    ("COc1ccc(/C=C/C(=O)C(C)C)cc1", "µM", "=", 27.2),
    ("O=C(ON=C1c2ccccc2C(Br)C(Br)c2ccccc21)c1cc([N+](=O)[O-])cc([N+](=O)[O-])c1 (centres undefined)", "µM", "=", 20.5),
    ("NC(=O)CN1C=CCC(C(N)=O)=C1 [CARICOTAMIDE]", "µM", ">", 100),
    ("CC[C@]12C=CCN3CCC4(c5cc([C@@]6(C(=O)OC)CC7CN(CCc8c6[nH]c6ccccc86)C[C@@H]6CCC[C@H]76)c(OC)cc5N(C)C4[C@](O)(C(=O)OC)C1OC(C)=O)C32 (some centres undefined)", "µM", "=", 0.443),
    ("COc1cc(OC)c(-n2[nH]c(=O)n(C)c2=O)c(OC)c1", "µM", ">", 100),
    ("Cc1nc(N)nc(CCC(=O)Nc2cccc(C(F)(F)F)c2)c1-c1ccc(Cl)cc1", "µM", ">", 100),
    ("CC(C)(C)OC(=O)N1CC(C)(C)N2C(=O)C3(CCCO3)C12 (centres undefined)", "µM", ">", 100),
    ("O=[N+]([O-])c1ccc(CSC2=C(c3ccc(Cl)cc3)S/C(=C3\\SC(SCc4ccc([N+](=O)[O-])cc4)=C(c4ccc(Cl)cc4)S3)S2)cc1", "µM", ">", 100),
    ("O=C(CN1CCCCC1)c1ccc2[nH]c(=O)oc2c1", "µM", ">", 100),
    ("Cc1cc2c(=O)cc(-c3ccc(Cl)cc3Cl)oc2c(C(=O)O)c1C", "µM", ">", 100),
    ("COc1ccc(C2C3=C(Nc4ncnn42)c2ccccc2OC3c2ccccc2)cc1 (centres undefined)", "µM", "=", 17.4),
    ("CCCCn1c2c(n(CCCC)c1=[Se])-c1c(n(CCCC)c(=[Se])n1CCCC)S[Se][Se]S2", "µM", "=", 13.7),
    ("CN(C)CCNC(=O)c1cccc2nc3c4ccccc4c4ccccc4c3nc12", "µM", "=", 1.69),
    ("COc1ccc(-c2c(C#N)c(-c3ccc(C)cc3)n(NS(=O)(=O)c3ccccc3)c(=O)c2C#N)cc1", "µM", "=", 39.3),
    ("CC(C)C(/C=C/c1ccc(Cl)cc1)=N\\NC(=S)NN", "µM", "=", 5.98),
    ("O=C(O)c1cccc(S(=O)(=O)NCCO)c1", "µM", ">", 100),
    ("O=C(CC(C(=O)c1cccs1)c1ccsc1)c1cccs1 (centres undefined)", "µM", "=", 71.3),
    ("CCO/C([O-])=C(/C=O)[n+]1c(C)n(C)c2ccccc21", "µM", ">", 100),
    ("O=C(c1cccnc1)N1N=C(c2ccccc2)CC1(O)c1cc(F)c(Cl)cc1Cl (centres undefined)", "µM", "=", 26.2),
    ("CCOC(=O)c1cc(C2CCN(c3ccccc3)C2=O)c(C(=O)/C=C(/C)O)[nH]1 (centres undefined)", "µM", "=", 51.6),
    ("CCOC(=O)CN1C(=O)c2cccc3cc([N+](=O)[O-])cc(c23)C1=O", "µM", "=", 1.65),
    ("O=C(O)c1ccccc1/C=N\\N=C1NCCN1", "µM", ">", 100),
    ("COc1ccc(/C=N/NC(=O)C2=C(N)N(c3ccccc3)C(=C(C#N)C#N)S2)cc1", "µM", ">", 100),
    ("CCn1c(-c2c(Cl)cc(O)cc2Cl)cc2c(Cl)cc(O)cc21", "µM", "=", 3.48),
]
